Data provenance: ChEMBL document CHEMBL1123101

studySystem: Histamine H2 receptor (Cavia porcellus)
assayInfo: Dissociation constant of H2 receptor antagonist activity against guinea pig atrium
Type: functional, tissue-based
measurementContext: Cardiac atrium
Hi! Just check whether KB is below 0.8 µM. Below gives Fulfilled, equal or above gives Not fulfilled.

Would you kindly verify if KB of CCNc1cc(-c2n[nH]c(N)n2)ccn1 is strictly less than 0.8 µM?
Fulfilled

Would you kindly verify if KB of CNc1cc(-c2n[nH]c(N)n2)ccn1 is strictly less than 0.8 µM?
Fulfilled

Would you kindly verify if KB of Nc1n[nH]c(-c2ccnc(NCc3ccccc3)c2)n1 is strictly less than 0.8 µM?
Fulfilled

Would you kindly verify if KB of Cc1cc(-c2n[nH]c(N)n2)ccn1 is strictly less than 0.8 µM?
Not fulfilled

Would you kindly verify if KB of Cc1cc(-c2c[nH]c(C)n2)ccn1 is strictly less than 0.8 µM?
Not fulfilled

Would you kindly verify if KB of CC(C)Nc1cc(-c2n[nH]c(N)n2)ccn1 is strictly less than 0.8 µM?
Not fulfilled

Would you kindly verify if KB of Nc1n[nH]c(-c2ccncc2)n1 is strictly less than 0.8 µM?
Not fulfilled

Would you kindly verify if KB of Cc1n[nH]c(-c2ccnc(CO)c2)n1 is strictly less than 0.8 µM?
Not fulfilled

Would you kindly verify if KB of CCCNc1cc(-c2n[nH]c(N)n2)ccn1 is strictly less than 0.8 µM?
Fulfilled

Would you kindly verify if KB of Nc1n[nH]c(-c2ccnc(NCCO)c2)n1 is strictly less than 0.8 µM?
Not fulfilled

Would you kindly verify if KB of CCNc1cc(-c2n[nH]c(NC)n2)ccn1 is strictly less than 0.8 µM?
Not fulfilled

Would you kindly verify if KB of CC(C)(C)c1ccc(CNc2cc(-c3n[nH]c(N)n3)ccn2)cc1 is strictly less than 0.8 µM?
Fulfilled

Would you kindly verify if KB of CCNc1cc(-c2c[nH]c(N)n2)ccn1 is strictly less than 0.8 µM?
Not fulfilled

Would you kindly verify if KB of Cc1ccc(CNc2cc(-c3n[nH]c(N)n3)ccn2)cc1C is strictly less than 0.8 µM?
Fulfilled

Would you kindly verify if KB of CN(C)c1cc(-c2n[nH]c(N)n2)ccn1 is strictly less than 0.8 µM?
Not fulfilled

Would you kindly verify if KB of CCNc1cc(-c2n[nH]c(CC)n2)ccn1 is strictly less than 0.8 µM?
Not fulfilled

Would you kindly verify if KB of Nc1cc(-c2n[nH]c(N)n2)ccn1 is strictly less than 0.8 µM?
Not fulfilled

Would you kindly verify if KB of CCNc1cc(-c2nc[nH]n2)ccn1 is strictly less than 0.8 µM?
Not fulfilled

Would you kindly verify if KB of C=CCNc1cc(-c2nc(N)n[nH]2)ccn1 is strictly less than 0.8 µM?
Fulfilled

Would you kindly verify if KB of CCNc1cc(-c2n[nH]c(C)n2)ccn1 is strictly less than 0.8 µM?
Fulfilled

Would you kindly verify if KB of CCCCNc1cc(-c2n[nH]c(N)n2)ccn1 is strictly less than 0.8 µM?
Fulfilled

Would you kindly verify if KB of Nc1n[nH]c(-c2ccnc(NCCc3ccccc3)c2)n1 is strictly less than 0.8 µM?
Not fulfilled

Would you kindly verify if KB of CCCc1cc(-c2n[nH]c(N)n2)ccn1 is strictly less than 0.8 µM?
Not fulfilled

Would you kindly verify if KB of COCCNc1cc(-c2n[nH]c(N)n2)ccn1 is strictly less than 0.8 µM?
Not fulfilled

Would you kindly verify if KB of CCNc1cc(-c2c[nH]cn2)ccn1 is strictly less than 0.8 µM?
Fulfilled

Would you kindly verify if KB of CCNc1cc(-c2c[nH]c(C)n2)ccn1 is strictly less than 0.8 µM?
Not fulfilled

Would you kindly verify if KB of Cc1ccc(CNc2cc(-c3n[nH]c(N)n3)ccn2)cc1 is strictly less than 0.8 µM?
Fulfilled

Would you kindly verify if KB of CCNc1cc(-c2n[nH]c(NCC)n2)ccn1 is strictly less than 0.8 µM?
Not fulfilled

----------
assayInfo: Partition coefficient (logP)
Assay type: physicochemical
measurementContext: octanol/water
measuredParameter: logP
Just the number, please, no unit attached.

The value of logP measured for the compound CCNc1cc(-c2n[nH]c(N)n2)ccn1 turned out to be 1.13

The value of logP measured for the compound CCCCCCNc1cc(-c2n[nH]c(N)n2)ccn1 turned out to be 3.3

The value of logP measured for the compound Nc1n[nH]c(-c2ccnc(NCc3ccccc3)c2)n1 turned out to be 2.15

The value of logP measured for the compound CCCCCCCCCCNc1cc(-c2n[nH]c(N)n2)ccn1 turned out to be 4.07

The value of logP measured for the compound CCCCNc1cc(-c2n[nH]c(N)n2)ccn1 turned out to be 2.15

The value of logP measured for the compound COCCNc1cc(-c2n[nH]c(N)n2)ccn1 turned out to be 0.94

The value of logP measured for the compound CNc1cc(-c2n[nH]c(N)n2)ccn1 turned out to be 0.694

The value of logP measured for the compound Cc1ccc(CNc2cc(-c3n[nH]c(N)n3)ccn2)cc1C turned out to be 3.08

The value of logP measured for the compound Nc1n[nH]c(-c2ccnc(NCCCc3ccccc3)c2)n1 turned out to be 3.05

The value of logP measured for the compound C=CCNc1cc(-c2nc(N)n[nH]2)ccn1 turned out to be 1.26

The value of logP measured for the compound Nc1cc(-c2n[nH]c(N)n2)ccn1 turned out to be 0.11

The value of logP measured for the compound Nc1n[nH]c(-c2ccnc(NCCc3ccccc3)c2)n1 turned out to be 2.63

The value of logP measured for the compound Nc1n[nH]c(-c2ccnc(NCc3ccc(Cl)cc3)c2)n1 turned out to be 2.85

----------
studySystem: Histamine H2 receptor (Cavia porcellus)
assayInfo: Dissociation constant of H2 receptor antagonist activity against guinea pig atrium
Assay type: functional, tissue-based
measurementContext: Cardiac atrium
Answer n if KB is under 2 µM, and y if it is 2 µM or more.

Please indicate if the recorded KB for CCCCCCNc1cc(-c2n[nH]c(N)n2)ccn1 meets or exceeds 2 µM.
n

Please indicate if the recorded KB for CCc1cc(-c2n[nH]c(N)n2)ccn1 meets or exceeds 2 µM.
n

Please indicate if the recorded KB for Nc1n[nH]c(-c2ccnc(NCc3ccc(Cl)cc3)c2)n1 meets or exceeds 2 µM.
n

Please indicate if the recorded KB for CCNc1cc(-c2n[nH]c(CO)n2)ccn1 meets or exceeds 2 µM.
y

Please indicate if the recorded KB for CCCc1n[nH]c(-c2ccnc(NCC)c2)n1 meets or exceeds 2 µM.
y
